- Test system: M14 melanoma
- Test details: NCI tumour cell line growth inhibition, 48 h
Provide the reported TGI of each item.
Field format: number, assumed µM, no unit text.

[Q] For the compound "COc1cc2nc(Cl)nc(NS(=O)(=O)c3cc4ccccc4s3)c2cc1OC" , what TGI is on record?
[A] 85

[Q] Same lookup for "O=S(=O)(/N=C(\NO)Nc1ccc(Cl)cc1)c1cc(C(F)(F)F)cc(C(F)(F)F)c1" , please.
[A] 32.1

[Q] Same lookup for "Cc1cc(Cl)nc(N(CCNc2ccnc3cc(Cl)ccc23)Cc2ccco2)n1" , please.
[A] 3.63

[Q] Same lookup for CC(C)Cc1ccc(C(C)/C=C2\CCC(CN(C)C)C2=O)cc1 (stereo not given) , please.
[A] 28.5

###

- Test system: TK-10 renal
- Test details: NCI tumour cell line growth inhibition, 48 h
Provide the reported TGI of each item.

[Q] Reported TGI for TK-10 renal, given "CCCCCCCCCCCC[C@@H](O)[C@H]1CC[C@H]([C@H](O)CC[C@H](O)[C@@H]2CC[C@@H](CCCCCCCC3=C[C@H](C)OC3=O)O2)O1" ?
[A] > 50 µM

[Q] Same lookup for CC(C)Cc1ccc(C(C)/C=C2\CCC(CN(C)C)C2=O)cc1 (stereo not given) , please.
[A] 18.9 µM

[Q] Same lookup for COc1ccc(C(O)c2cc3c(N)c(C(=O)Nc4cccc5ccccc45)sc3nc2C)cc1 (stereo not given) , please.
[A] > 100 µM

[Q] Same lookup for "N#Cc1ccccc1OCCOc1ccccc1C#N" , please.
[A] > 100 µM

[Q] Same lookup for O=C1NC(=O)C2C(=O)NC(=O)C1C2Cc1ccco1 (stereo not given) , please.
[A] > 100 µM

###

- Test system: HCC-2998 colon
- Test details: NCI tumour cell line growth inhibition, 48 h
Where a SMILES comes first, the peptide text is derived from it. [ ]: non-standard residue; d: D form. The star is where a group is joined. ξ: configuration not given here. ξF = NC(Cc1ccccc1)C(=O)O; Cbz = O=C(OCc1ccccc1)*
Provide the reported TGI of each item.

[Q] For the molecule COc1ccc2nc3cc(Cl)ccc3c(NC(C)CCCN(CCCl)CCCl)c2c1 (stereo unspecified) , what TGI is on record?
[A] 9.61 µM

[Q] Same lookup for "O=c1c(-c2ccccc2)nnc2n(Cc3ccccc3)c3ccccc3n12" , please.
[A] > 100 µM

[Q] Same lookup for "CCOc1cnc(C(O)(c2ccccc2)c2ccccc2)o1" , please.
[A] > 100 µM

[Q] Same lookup for COC(=O)[C@@]12OC[C@]34C([C@@H](O)C1O)[C@@]1(C)CC(=O)C(OC(=O)CC(C)C(F)(F)F)=C(C)C1C[C@H]3OC(=O)[C@H](O)[C@H]42 (stereo partly specified) , please.
[A] 11 µM

[Q] Same lookup for CCOC(=O)CNC(=O)C(Cc1ccccc1)NC(=O)OCc1ccccc1 (stereo unspecified) (Cbz-[ξF]-Gly-OEt) , please.
[A] > 100 µM

[Q] Same lookup for "CC(=O)c1ccc(N=NN2CCCC2)cc1" , please.
[A] > 100 µM

[Q] Same lookup for CSc1nc2nc(-c3ccccc3)c(C)c-2c2n1C(C)C(=O)N2 (stereo unspecified) , please.
[A] > 100 µM

[Q] Same lookup for "COc1ccc(OC)c2sc(N3C(=O)/C(=C/c4cccc(Oc5ccccc5)c4)N=C3c3ccccc3)nc12" , please.
[A] > 100 µM

[Q] Same lookup for Cn1c2ccccc2c(=O)c2c(O)cc3c(c21)C1OCC(C)(O)C1O3 (stereo unspecified) , please.
[A] > 100 µM

[Q] Same lookup for "C(=Nc1nc(SCc2ccccc2)nc2[nH]ncc12)c1cccs1" , please.
[A] > 100 µM

[Q] Same lookup for "O=c1cc(Nc2cccc(O)c2)[nH]c(=O)[nH]1" , please.
[A] > 100 µM

[Q] Same lookup for "Cc1cccc(Cn2cc(CO)c3cnccc32)c1" , please.
[A] > 100 µM

[Q] Same lookup for CCC(c1ccccc1)c1noc(CCN(CC)CC)n1 (stereo unspecified) , please.
[A] > 100 µM

[Q] Same lookup for "CCO/C=C1\SC(=S)N(c2ccc(OCC)cc2)C1=O" , please.
[A] > 100 µM

[Q] Same lookup for CCCCCCCCCCCCCCCCCCNc1ccn(C2OC(COP(=O)(O)OCC3OC(n4ccc(N)nc4=O)C(O)C3O)C(O)C2O)c(=O)n1 (stereo unspecified) , please.
[A] > 100 µM

[Q] Same lookup for CCCCCC(=O)O[C@]1(C(C)=O)CCC2C3CCC4=CC(=O)CC[C@]4(C)C3CC[C@@]21C (stereo partly specified) , please.
[A] 7.56 µM

[Q] Same lookup for Cc1ccc(S(=O)(=O)N(CC(O)COc2ccccc2)c2c(F)cccc2F)cc1 (stereo unspecified) , please.
[A] 47.6 µM

[Q] Same lookup for "CC1(C)O[C@@H]2[C@@H](COC(C)(C)O[C@H]2C2SCCCS2)O1" , please.
[A] > 100 µM

[Q] Same lookup for "COC1(OC)c2occc2C(=N)c2ccc(=O)oc21" , please.
[A] > 100 µM

[Q] Same lookup for CCN1CCC(O)(c2ccc([N+](=O)[O-])cc2)C(C(=O)c2ccc([N+](=O)[O-])cc2)C1 (stereo unspecified) , please.
[A] 32.8 µM

[Q] Same lookup for COc1ccc2nc3c(c(N)c2c1)C1CCC3C1(C)C (stereo unspecified) , please.
[A] 31.9 µM

[Q] Same lookup for "Nc1nccc(-c2c(-c3ccc(F)cc3)nn3cc(C(F)(F)F)ccc23)n1" , please.
[A] > 25 µM

[Q] Same lookup for C[C@@H](CC(=O)OCc1ccccc1)OC1OC(COC(=O)C(C)(C)C)C(OC(=O)C(C)(C)C)C(OC(=O)C(C)(C)C)C1OC(=O)C(C)(C)C (stereo partly specified) , please.
[A] > 100 µM

[Q] Same lookup for "COc1ccc(-c2cc(/C=C/C(=O)c3ccc(N)cc3)[nH]n2)cc1OC" , please.
[A] 3.83 µM

[Q] Same lookup for "COc1ccccc1CNCCN1C(=O)c2ccc3c4c(ccc(c24)C1=O)C(=O)N(CCNCc1ccccc1OC)C3=O" , please.
[A] 0.354 µM

[Q] Same lookup for "CCCCCC/C=C\CCCCCCCCC(=O)c1cccc(OC)c1OC" , please.
[A] > 100 µM

[Q] Same lookup for O=C(c1ccc(Cl)cc1)C1OC12C(=O)Nc1c(Cl)cc(Cl)cc12 (stereo unspecified) , please.
[A] > 100 µM

[Q] Same lookup for "O=C(O)CCCc1ccc2c(c1)CC1(C2)Cc2cc3c(cc2C1)CCCC3" , please.
[A] 41.4 µM

[Q] Same lookup for "O=C(COc1ccc(/C=C2\Oc3ccccc3C2=O)cc1)Nc1nc2ccccc2s1" , please.
[A] > 100 µM

[Q] Same lookup for NC(N)=NCCCC(NCc1c2ccccc2nc2ccccc12)C(=O)O (stereo unspecified) , please.
[A] > 100 µM

[Q] Same lookup for COC(=O)C(C(=O)C(=O)Nc1c(Cl)cc([N+](=O)[O-])cc1Cl)c1csc(-n2nc(C3=CCCCC3)cc2-c2ccccc2)n1 (stereo unspecified) , please.
[A] > 100 µM

[Q] Same lookup for CC(N)(CC(O)(C(F)(F)Cl)C(F)(F)Cl)C(=O)O (stereo unspecified) , please.
[A] > 10 µM

[Q] Same lookup for "S=C1Cc2c(-c3ccccc3)cc(-c3cccc(Cl)c3)nc2-c2ccccc2N1" , please.
[A] 18.7 µM

[Q] Same lookup for "COc1ccc2nc(NC(=O)C(=O)CC(=O)c3ccc([N+](=O)[O-])cc3)sc2c1" , please.
[A] > 100 µM

[Q] Same lookup for "CC(=O)OCC(=O)[C@@]1(O)CC[C@H]2[C@@H]3C[C@H](C)C4=CC(=O)C=C[C@]4(C)[C@@]3(F)[C@@H](O)C[C@@]21C" , please.
[A] > 100 µM

[Q] Same lookup for "N#Cc1ccccc1OCCOc1ccccc1C#N" , please.
[A] > 100 µM
